Each entry below carries its recorded koff.
Target: T1, in-line fusion protein of human IL-36R extracellular domain and IL1RAcP extracellular domain expressed with … (human; mouse, UniProt Q9HB29 20-337; Q9NPH3 21-359, limits assumed)
T1 construct: not shown: mouse IgG2a Fc
T1 sequence (looked up): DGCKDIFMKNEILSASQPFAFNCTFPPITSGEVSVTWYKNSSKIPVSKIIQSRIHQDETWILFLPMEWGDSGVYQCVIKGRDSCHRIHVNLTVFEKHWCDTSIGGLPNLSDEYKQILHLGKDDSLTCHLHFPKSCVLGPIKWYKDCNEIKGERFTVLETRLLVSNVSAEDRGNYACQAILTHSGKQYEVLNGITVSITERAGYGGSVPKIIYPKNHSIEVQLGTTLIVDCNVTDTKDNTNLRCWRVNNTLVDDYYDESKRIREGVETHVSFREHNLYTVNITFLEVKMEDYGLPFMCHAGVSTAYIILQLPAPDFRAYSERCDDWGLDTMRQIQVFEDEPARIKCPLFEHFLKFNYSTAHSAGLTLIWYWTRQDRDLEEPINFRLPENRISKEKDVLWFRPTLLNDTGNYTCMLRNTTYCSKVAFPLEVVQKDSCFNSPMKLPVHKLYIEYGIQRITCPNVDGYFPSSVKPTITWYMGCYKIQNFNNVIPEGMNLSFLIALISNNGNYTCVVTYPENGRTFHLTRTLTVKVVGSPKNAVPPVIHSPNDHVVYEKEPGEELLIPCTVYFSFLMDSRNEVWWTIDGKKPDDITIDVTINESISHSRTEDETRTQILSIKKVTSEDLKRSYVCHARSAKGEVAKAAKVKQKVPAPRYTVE
Assay: SPR Biacore 4000, mAb captured on anti-hFc, 37C
Please state the figure in s⁻¹; there is no need to write the unit.

Completed entries (count: 3):
[
  {
    "binder": "H4H14706P2 (antibody, human IgG4 S228P, kappa, V domains shown, Fully human anti-IL-36R antibody) VH: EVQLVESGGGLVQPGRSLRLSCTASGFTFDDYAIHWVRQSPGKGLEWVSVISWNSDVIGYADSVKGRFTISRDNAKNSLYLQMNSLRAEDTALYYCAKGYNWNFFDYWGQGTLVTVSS VL: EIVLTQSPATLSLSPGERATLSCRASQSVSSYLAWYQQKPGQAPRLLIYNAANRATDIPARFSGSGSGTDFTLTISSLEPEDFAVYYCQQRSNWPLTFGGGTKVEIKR",
    "koff, s⁻¹": 0.000271
  },
  {
    "binder": "H4H14709P (antibody, human IgG4 S228P, kappa, V domains shown, Fully human anti-IL-36R antibody) VH: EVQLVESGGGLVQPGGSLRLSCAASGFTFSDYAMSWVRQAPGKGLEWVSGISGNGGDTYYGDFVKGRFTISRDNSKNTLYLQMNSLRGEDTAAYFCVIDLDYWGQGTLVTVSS VL: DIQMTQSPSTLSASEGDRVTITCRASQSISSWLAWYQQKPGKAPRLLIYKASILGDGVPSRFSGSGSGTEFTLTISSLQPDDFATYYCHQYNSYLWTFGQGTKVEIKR",
    "koff, s⁻¹": 0.000123
  },
  {
    "binder": "H4H14728P (antibody, human IgG4 S228P, kappa, V domains shown, Fully human anti-IL-36R antibody) VH: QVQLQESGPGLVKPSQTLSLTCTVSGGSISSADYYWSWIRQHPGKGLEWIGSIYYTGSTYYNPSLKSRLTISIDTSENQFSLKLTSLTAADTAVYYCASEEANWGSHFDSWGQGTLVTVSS VL: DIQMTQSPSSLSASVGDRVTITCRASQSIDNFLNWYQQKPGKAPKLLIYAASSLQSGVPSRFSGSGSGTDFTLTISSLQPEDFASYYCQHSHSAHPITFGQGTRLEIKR",
    "koff, s⁻¹": 0.00198
  }
]

// switching to the query binder
[Q] Can you share its koff? I mean this binder: H4H14757P (antibody, human IgG4 S228P, kappa, V domains shown, Fully human anti-IL-36R antibody) VH: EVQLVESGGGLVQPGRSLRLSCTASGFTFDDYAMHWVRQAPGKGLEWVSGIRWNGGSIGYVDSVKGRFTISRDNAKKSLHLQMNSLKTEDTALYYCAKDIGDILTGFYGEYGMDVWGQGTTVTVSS VL: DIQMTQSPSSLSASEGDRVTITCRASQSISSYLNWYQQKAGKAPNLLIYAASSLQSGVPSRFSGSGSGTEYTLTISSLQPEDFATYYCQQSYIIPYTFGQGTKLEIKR
[A] 0.000196

Just for reference, patent US20200017592A1 is where these values come from.
